Test system: SK-MEL-28 melanoma
Test: NCI-60 one-dose screen, 48 h (100 = growth as untreated, 0 = no growth, -100 = all killed)
Details: 10 µM unless noted
The panel holds about 83,000 compounds, 20% with a hit somewhere; the sample as a whole holds those more often.
MEASUREMENT LABEL: growth (%)
Enter your answer as a number in %; do not include the unit.

State its growth for this compound: "COc1ccc(-c2nn(-c3ccc(NC(=O)Nc4cc(C(F)(F)F)cc(C(F)(F)F)c4)cc3)cc2-c2ccncc2)cc1Cl" 30.1

Give growth for the following compound: "CCCCN(CCCC)c1ccc(C(=N)c2ccc(N(C)C)cc2)cc1" -70.1

Item S=C=NP1(N=C=S)=NP(N=C=S)(N=C=S)=NP(N=C=S)(N=C=S)=NP(N=C=S)(N=C=S)=N1 (centres undefined) : provide growth 107

Indicate the recorded growth value for this compound: COc1cc([C@@H]2c3cc4c(cc3C(OC3O[C@@H]5COC(C)O[C@H]5[C@H](O)[C@H]3O)C3COC(=O)[C@@H]32)OCO4)cc(OC)c1O (some centres undefined) 61.4

Identify the reported growth for the following entry. "COc1cc(C(=O)C[n+]2ccccc2)ccc1OC(C)=O" 107

Write down growth measured for item "O=C(c1ccccc1)[C@H]1[C@@H]2CCCN2[C@]2(C(=O)Nc3ccc(F)cc32)[C@]12C(=O)Nc1ccccc12" 92.8

Tell me its growth given "COc1cc(Cn2cc3c(c2)-c2onc(CO)c2CC3)cc(OC)c1OC" as the entry. 93.7

Return growth for the following compound: "NC(N)=N/N=C/c1ccc([N+](=O)[O-])cc1" 109

Answer with the recorded growth for the compound listed here: "FC(F)(F)c1cn(CC2CNC2)c2ncnc(Cl)c12" 104
